# System: PfAP2-LT AP2 domain (GST-tagged)
# experiment.summary: gcPBM binding intensity (ln(normalized median fluorescence intensity)); higher = stronger DNA binding
Whole data set: some 25,000 sequences, median “ln(normalized median fluorescence intensity)” near 8.9, cut for the highest 2% near 10. Many of the other results were omitted from the sample, so the highest values are more common in it than they were.
quantity: gcPBM binding intensity (ln)
Please give the numeric answer without any surrounding text.

1. AAAAAAAAAAAAAACACACACACAATAGTATATAAA [CACACA_site957] : 9.55
2. ACCATATAAATAAACACACACACACCCATATATATA [CACACA_site2321] : 10
3. AAGAGTTTGAAGTTTGCACACTACGTTAAAAATAAA [CACACA_site3939] : 8.72
4. TAAAAAGGAAAACACACACACACATATATATATATA [CACACA_site3588] : 10.2
5. ATAAAAAGGAAACACACACACACACCCATATATATA [CACACA_site904] : 10.4

As a next step, examine the sequence that follows.
Qu. Any idea what its gcPBM binding intensity (ln) is? The sequence is GGAACAAATAATATCACACATATATATATATATATA [CACACA_site5670]
Ans. 10.2
